Target: T1, human LILRB2 expressed on cells (293T-LILRB2, CHO-K1-LILRB2) (human, UniProt Q8N423 22-597)
T1 construct: whole, on cells; the cell line is named under assay; also called HEK293T-LILRB2
T1 sequence (Q8N423 22-597): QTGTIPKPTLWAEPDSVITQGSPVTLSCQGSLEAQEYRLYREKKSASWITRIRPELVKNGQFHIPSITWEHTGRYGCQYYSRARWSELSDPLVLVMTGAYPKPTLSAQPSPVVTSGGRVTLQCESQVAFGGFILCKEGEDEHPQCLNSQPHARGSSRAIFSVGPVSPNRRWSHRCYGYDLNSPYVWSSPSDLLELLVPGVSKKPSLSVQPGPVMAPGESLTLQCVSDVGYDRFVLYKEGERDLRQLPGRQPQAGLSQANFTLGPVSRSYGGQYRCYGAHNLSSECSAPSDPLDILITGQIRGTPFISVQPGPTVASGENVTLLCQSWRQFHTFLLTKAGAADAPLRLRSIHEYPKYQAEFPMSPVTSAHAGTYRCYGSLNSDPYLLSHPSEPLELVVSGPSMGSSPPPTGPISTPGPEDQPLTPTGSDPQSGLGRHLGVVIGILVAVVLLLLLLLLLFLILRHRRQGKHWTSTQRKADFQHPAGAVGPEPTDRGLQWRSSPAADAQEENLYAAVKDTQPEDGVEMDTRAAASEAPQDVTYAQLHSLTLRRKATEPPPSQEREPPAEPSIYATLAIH
Assay: flow cytometry, blockade of His-tagged HLA-G tetramer binding to 293T-LILRB2 cells; fit table under the graph
Procedure: Serial diluted humanized LILRB2 antibodies were then added to the mixture and incubated at room temperature for another 45 minutes. The binding of HLA-G/LILRB2 was detected afterwards using a secondary PE-labeled anti-His tag antibody via flow cytometry.
Readout Type: Span (RFU)
I only need the number, in RFU, no unit after it.

For Antibody h#2G6 (antibody, V domains shown, Humanized variant of 11B12) VH: EVQLVESGGGLVQPGGSLRLSCAVSGYSITSGYYWNWVRQAPGKGLEWVAYISYDGNNNYNPSLKNRFTISRDASKNTFYLQMNSLRAEDTAVYYCAREESTMITTAWFAYWGQGTLVTVSS VL: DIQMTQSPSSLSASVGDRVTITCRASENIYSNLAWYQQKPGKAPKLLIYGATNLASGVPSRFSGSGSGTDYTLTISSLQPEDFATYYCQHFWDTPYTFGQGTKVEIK , what is its reported Span?
7660
